# Condition Label: [M+HCOO]-; instrument: DT; single field, calibrated with Agilent tune mix (Agilent)
Assay Metric: collision cross section (N2) (Å²)
Kindly answer with a numeric value in Å², unit omitted.

1. CCCCCCCC/C=C\CCCCCCCCCCCC(=O)OC[C@H](COP(=O)([O-])OCC[N+](C)(C)C)OC(=O)CCCCCCCCCCCCC	292.3

Exercise: Consider the compound "CCCCCCCC/C=C\CCCCCCCC(=O)OC[C@@H](O)COP(=O)([O-])OCC[N+](C)(C)C" and give its measured collision cross section (N2).
Solution: 238.6

Exercise: Consider the compound "CCCCC/C=C\C/C=C\CCCCCCCC(=O)OC[C@@H](O)COP(=O)([O-])OCC[N+](C)(C)C" and give its measured collision cross section (N2).
Solution: 235.2

Exercise: Consider the compound CCCCCCCCCCCCC=CC[C@@H](O)[C@H](CO[C@@H]1O[C@H](CO)[C@@H](O)C(O)C1O)NC(=O)CC=CCCCCCCCCCCCCCCCCCCCC (stereo partly specified) and give its measured collision cross section (N2).
Solution: 298.5

Exercise: Consider the compound "CCCCCCCCCCCCCCCCCCCC(=O)N[C@@H](CO)[C@H](O)CCCCCCCCCCCCCCC" and give its measured collision cross section (N2).
Solution: 265.2

Exercise: Consider the compound "CCCCCCCCCCCCCCCC(=O)N[C@@H](COP(=O)([O-])OCC[N+](C)(C)C)[C@H](O)CCCCCCCCCCCCCCC" and give its measured collision cross section (N2).
Solution: 282.3

====

# Condition Label: [M+Na]+; instrument: DT; stepped-field
Measured collision cross section (N2) accompanies every entry in the list below.
Kindly answer with a numeric value in Å², unit omitted.

1) CCCCC/C=C\C/C=C\CCCCCCCC(=O)O[C@H](COCCCCCCCCCCCCCCCC)COP(=O)(O)OCCN [PE(o34:2)]	279.7
2) OC[C@H]1O[C@@H](O[C@H]2[C@H](O)[C@@H](O)[C@@H](O)O[C@@H]2CO)[C@H](O)[C@@H](O)[C@H]1O [Lactose]	178.1
3) CCCCC/C=C\C/C=C\C/C=C\C/C=C\CCCC(=O)O[C@H](COCCCCCCCCCCCCCCCC)COP(=O)(O)OCCN [PE(o36:4)]	281.6
4) CCCCCCCCCCCCC=CC[C@@H](O)[C@H](COP(=O)([O-])OCC[N+](C)(C)C)NC(=O)CC=CCCCCCCCCCCCCCCCCCC [SM(40:2)]	301.7
5) CCCCCCCCCCCCC=CC[C@@H](O)[C@H](CO[C@@H]1O[C@H](CO)[C@@H](O)C(O)C1O)NC(=O)CC=CCC=CCCCCCCCCCCCCCCC (stereo partly specified) [GlcCer(40:3)]	295.8

// switching to the query molecule
Exercise: Consider the molecule CC/C=C\C/C=C\C/C=C\C/C=C\C/C=C\C/C=C\CCC(=O)O[C@H](COC(=O)CCCCCC/C=C\C/C=C\C/C=C\CCCCC)COP(=O)(O)OC[C@H](N)C(=O)O [PS(42:9)] and give its measured collision cross section (N2).
Solution: 302

====

# Condition Label: [M+H]+; instrument: TW; calibrated with phosphatidylcholines (ESI+) and phosphatidylethanolamines (ESI-)
Assay Metric: collision cross section (N2) (Å²)
Kindly answer with a numeric value in Å², unit omitted.

Field: example entries. Status: answers known.
1) CC/C=C\C/C=C\C/C=C\CCCCCCCC(=O)OC[C@H](COP(=O)([O-])OCC[N+](C)(C)C)OC(=O)CCCCCC/C=C\C/C=C\C/C=C\CCCCC [PC(38:6)]	286.8
2) CCCCC/C=C\C/C=C\CCCCCCCCCCCC(=O)O[C@H](COC(=O)CCCCCCC/C=C\C/C=C\CCCCC)COP(=O)([O-])OCC[N+](C)(C)C [PC(40:4)]	296.1

// switching to the query compound
Exercise: Consider the compound CCCCCC/C=C\CCCCCCCCCC(=O)OC[C@H](COP(=O)([O-])OCC[N+](C)(C)C)OC(=O)CCCCCCC/C=C\CCCCCC [PC(34:2)] and give its measured collision cross section (N2).
Solution: 281.7

====

Measured collision cross section (N2) accompanies every entry in the list below.
# Condition Label: [M+Na]+; instrument: DT; single field, calibrated with Agilent tune mix (Agilent)
# output: number + unit

Exercise: Consider the compound NC(=O)NC(NC(N)=O)C(=O)O [Allantoic acid] and give its measured collision cross section (N2).
Solution: 143 Å²

Exercise: Consider the compound Cn1c(=O)ccn([C@@H]2O[C@H](CO)[C@@H](O)[C@H]2O)c1=O [3-Methyluridine] and give its measured collision cross section (N2).
Solution: 164.2 Å²

Exercise: Consider the compound O=C(O)CC(O)(CC(=O)O)C(=O)O [Citrate] and give its measured collision cross section (N2).
Solution: 142.4 Å²

Exercise: Consider the compound O=C(O)[C@H]1O[C@H](OP(=O)(O)OP(=O)(O)OC[C@H]2O[C@@H](n3ccc(=O)[nH]c3=O)[C@H](O)[C@@H]2O)[C@H](O)[C@@H](O)[C@@H]1O [Uridine 5'-diphosphoglucuronic acid] and give its measured collision cross section (N2).
Solution: 210.1 Å²

Exercise: Consider the compound O=P(O)(O)O[C@H]1O[C@H](CO)[C@@H](O)[C@H](O)[C@H]1O [alpha-D-Glucose 1-phosphate] and give its measured collision cross section (N2).
Solution: 158 Å²

Exercise: Consider the compound O=C(O)CNC(=O)CCc1ccccc1 [Phenylpropionylglycine] and give its measured collision cross section (N2).
Solution: 145.5 Å²

Exercise: Consider the compound O=c1[nH]cc([C@@H]2O[C@H](CO)[C@@H](O)[C@H]2O)c(=O)[nH]1 [Pseudouridine] and give its measured collision cross section (N2).
Solution: 159 Å²

Exercise: Consider the compound CC(C)C(O)(CC(=O)O)C(=O)O (configuration not stated) [2-Isopropylmalic acid] and give its measured collision cross section (N2).
Solution: 140.9 Å²

Exercise: Consider the compound O=C(O)CC(Nc1ncnc2c1ncn2[C@@H]1O[C@H](COP(=O)(O)O)[C@@H](O)[C@H]1O)C(=O)O (some centres not stated) [Adenylsuccinic acid] and give its measured collision cross section (N2).
Solution: 195.6 Å²

Exercise: Consider the compound CC(=O)N[C@H]1C(OP(=O)(O)O)O[C@H](CO)[C@@H](O)[C@@H]1O (some centres not stated) [N-Acetylglucosamine 1-phosphate] and give its measured collision cross section (N2).
Solution: 166.6 Å²

Exercise: Consider the compound OC[C@H]1OC(O)[C@H](O)[C@@H](O)[C@H]1O (stereo partly drawn) [D-(+)-Galactose] and give its measured collision cross section (N2).
Solution: 142.1 Å²

Exercise: Consider the compound Nc1ccc(C(=O)NCC(=O)O)cc1 [Aminohippuric acid] and give its measured collision cross section (N2).
Solution: 153.7 Å²

Exercise: Consider the compound O=C(O)C(=O)CC1(C(=O)O)C=CC(O)C=C1 (configuration not stated) [Prephenate] and give its measured collision cross section (N2).
Solution: 155 Å²

====

# Condition Label: [M+Na]+; instrument: DT; stepped-field
Measured collision cross section (N2) accompanies every entry in the list below.
Kindly answer with a numeric value in Å², unit omitted.

1) NC(=O)CC[C@H](NC(=O)Cc1ccccc1)C(=O)O [Phenylacetyl L-Glutamine]	171.25

Exercise: Consider the molecule CC(=O)N[C@@H]1C(O)O[C@H](CO)[C@@H](O)[C@@H]1O (stereo partly drawn) [N-Acetyl-D-mannosamine] and give its measured collision cross section (N2).
Solution: 154.76

Exercise: Consider the molecule NCCc1c[nH]c2ccc(O)cc12 [Serotonin] and give its measured collision cross section (N2).
Solution: 150.8

Exercise: Consider the molecule CCCCC/C=C\C=C\C(=O)CCCCCCCC(=O)O [9-OxoODE] and give its measured collision cross section (N2).
Solution: 199.5

====

# Condition Label: [M+H]+; instrument: TW; calibrated with polyalanine
Measured collision cross section (N2) accompanies every entry in the list below.

Field: example entries. Status: answers known.
1) COc1cc2c(c3oc(=O)c4c(c13)CCC4=O)[C@@H]1C=CO[C@@H]1O2	161 Å²
2) CC1=C2C(=CO[C@H](C)[C@H]2C)C(=O)C(C(=O)O)=C1O	148 Å²
3) COc1cc2c(c3oc(=O)c4c(c13)CCOC4=O)C1C=COC1O2 (centres undefined)	164 Å²
4) CC(C)(O)[C@H]1O[C@H]2CC[C@@]3(C)[C@@](O)(CC[C@H]4Cc5c([nH]c6ccccc56)[C@@]43C)C2=CC1=O	201 Å²
5) CC(C)[C@H]1C(=O)O[C@H](C(C)C)C(=O)N(C)[C@@H](C(C)C)C(=O)O[C@H](C(C)C)C(=O)N(C)[C@@H](C(C)C)C(=O)O[C@H](C(C)C)C(=O)N1C	244.1 Å²

Exercise: Consider the molecule "COc1cc2c(c3oc4cccc(O)c4c(=O)c13)[C@@H]1C=CO[C@@H]1O2" and give its measured collision cross section (N2).
Solution: 163 Å²

Exercise: Consider the molecule C=CC(C)(C)C12CC3C(=O)N/C(=C/c4cnc[nH]4)C(=O)N3C1Nc1ccccc12 (centres undefined) and give its measured collision cross section (N2).
Solution: 179 Å²

Exercise: Consider the molecule "COc1cc2c(c3oc(=O)c4c(c13)CCC4=O)[C@]1(O)C=CO[C@@H]1O2" and give its measured collision cross section (N2).
Solution: 166 Å²

Exercise: Consider the molecule "CCCC[C@@H](C)[C@@H](OC(=O)C[C@@H](CC(=O)O)C(=O)O)[C@H](C[C@@H](C)CCCCCC[C@@H](O)C[C@H](O)[C@H](C)N)OC(=O)C[C@@H](CC(=O)O)C(=O)O" and give its measured collision cross section (N2).
Solution: 258 Å²

Sourced from the C3SDB collision cross section collection
